tested on: NOMO1; test: cell viability relative to DMSO control; higher = less cytotoxic; conditions: RPMI 5 mM glucose + 10% dialyzed FBS; 48 h; 1.71 µM
cell viability: recorded values
Supply the numeric figure in %, leaving out any unit text.

Worked examples follow.
Prompt: Form field: reported cell viability of O=C(/C=C/c1c(C(=O)[O-])[nH]c2cc(Cl)cc(Cl)c12)Nc1ccccc1
Completion: 120

Prompt: Form field: reported cell viability of CC(C)[C@@H](C[S+](=O)([O-])C(C)C)N1C(=O)[C@@](C)(CC(=O)O)C[C@H](c2cccc(Cl)c2)[C@H]1c1ccc(Cl)cc1
Completion: 65.9

Prompt: Form field: reported cell viability of CC1(C)CCC(=C(CN2CCN(CC2)C3=CC=C(C=C3)C(=O)N[S+]([O-])(=O)C4=CC(=C(N[C@H](CCN5CCOCC5)CSC6=CC=CC=C6)C=C4)[S+]([O-])(=O)C(F)(F)F)\C1)/C7=CC=C(Cl)C=C7
Completion: 23.9

Prompt: Form field: reported cell viability of Clc1cc(Cl)cc(CNc2ncncc2-c2ccc3c(c2)OCO3)c1
Completion: 87.3

Prompt: Form field: reported cell viability of CCOC(=O)[C@H](CCc1ccccc1)N[C@@H](C)C(=O)N1CCC[C@H]1C(=O)O
Completion: 110

Next:
Prompt: Form field: reported cell viability of CC(=O)NC(CS)C(=O)O (stereo not drawn)
Completion: 80.1

Prompt: Form field: reported cell viability of CC(=O)OCC(=O)[C@@]12\N=C(C)/O[C@@H]1C[C@H]3[C@@H]4CCC/5=C/C(=O)/C=C\[C@]5(C)[C@H]4[C@@H](O)C[C@]23C
Completion: 113

Prompt: Form field: reported cell viability of N[S+](=O)([O-])c1cc(Cl)c(Cl)c([S+](N)(=O)[O-])c1
Completion: 92.6
